Hey, just so you know, these numbers are from patent US12545637B2.

System: 293T cells
Assay: Fluorescent detection of Fluc-mRNA (cell transfection efficiency of LNP formulations)
Assay type: cell-based
Conditions: LNP with 0.3 μg Fluc-mRNA, 96-well plate, 24 hours
Assay Endpoint: Relative light unit (RLU)
Give bare numbers, in RLU.

Reference set (3 entries):
{"columns": ["Molecule", "Relative light unit (RLU)"],
 "data": [
  ["CCCCCCCCCCOC(=O)CCCCCN(CCO)CCN(CCO)CCCCCC(=O)OCCC(CCCCCC)CCCCCC [YK-411]", 7976],
  ["CCCCCCCCC(CCCCCCCC)OC(=O)CCCCCN(CCO)CCCCN(CCO)CCCCCC(=O)OC(CCCCCCCC)CCCCCCCC [YK-420]", 4019330],
  ["CCCCCCCCCCOC(=O)CCCN(CCO)CCN(CCO)CCCCCC(=O)OC(CCCCCCCC)CCCCCCCC [YK-405]", 3197780]
]}

Entry under test: CCCCCCCCCCCOC(=O)CCCN(CCO)CCCN(CCO)CCCCCC(=O)OC(CCCCCCCC)CCCCCCCC [YK-413] . Its Relative light unit (RLU) was 1377048

====

Tested on: 293T cells
Assay: Cell survival rate assay (CCK-8)
Format: cell-based
Details: difference vs YK-420
Assay Endpoint: cell survival rate higher than YK-420 (%)
Numbers only, in %.

{"columns": ["Molecule", "cell survival rate higher than YK-420 [%]"],
 "data": [
  ["CCCCCCCCC(CCCCCCCC)COC(=O)CCCCCN(CCCO)CCN(CCCO)CCCCCC(=O)OCC(CCCCCCCC)CCCCCCCC", 34.89]
]}

Quick batch: cell survival rate higher than YK-420 for everything below.
1. CCCCCCCCC(CCCCCCCC)COC(=O)CCCCCN(CCCO)CCCN(CCCO)CCCCCC(=O)OCC(CCCCCCCC)CCCCCCCC
2. CCCCCCCCCCCOC(=O)CCCN(CCO)CCN(CCO)CCCCCC(=O)OC(CCCCCCCC)CCCCCCCC
3. CCCCCCCCC(CCCCCCCC)C(=O)OCCCCCCN(CCO)CCN(CCO)CCCCCCOC(=O)C(CCCCCCCC)CCCCCCCC
4. CCCCCCCCC(CCCCCCCC)OC(=O)CCCCCCCN(CCO)CCN(CCO)CCCCCCCC(=O)OC(CCCCCCCC)CCCCCCCC
5. CCCCCCCCC(CCCCCCCC)OC(=O)CCCCCN(CCO)CCN(CCO)CCCCCC(=O)OC(CCCCCCCC)CCCCCCCC

35.55
35.78
37.11
35.17
39.62

====

Could you please report measured RLU value, times that of ALC-0315 for the items listed next?
System: 293T cells
Assay: Fluorescent detection of Fluc-mRNA (cell transfection efficiency of LNP formulations)
Assay type: cell-based
Conditions: ratio vs ALC-0315
Numbers only.

For every item below, please supply its RLU value, times that of ALC-0315.
1. CCCCCCCCC(CCCCCCCC)COC(=O)CCCCCN(CCCO)CCCN(CCCO)CCCCCC(=O)OCC(CCCCCCCC)CCCCCCCC [YK-423]
2. CCCCCCCCC(CCCCCCCC)COC(=O)CCCCCN(CCCO)CCN(CCCO)CCCCCC(=O)OCC(CCCCCCCC)CCCCCCCC [YK-422]
3. CCCCCCCCCCCOC(=O)CCCN(CCO)CCN(CCO)CCCCCC(=O)OC(CCCCCCCC)CCCCCCCC [YK-407]
4. CCCCCCCCC(CCCCCCCC)C(=O)OCCCCCCN(CCO)CCN(CCO)CCCCCCOC(=O)C(CCCCCCCC)CCCCCCCC [YK-402]
5. CCCCCCCCC(CCCCCCCC)OC(=O)CCCCCCCN(CCO)CCN(CCO)CCCCCCCC(=O)OC(CCCCCCCC)CCCCCCCC [YK-403]
6. CCCCCCCCC(CCCCCCCC)OC(=O)CCCCCN(CCO)CCN(CCO)CCCCCC(=O)OC(CCCCCCCC)CCCCCCCC [YK-401]

1. 2.84
2. 2.94
3. 9.31
4. 2.30
5. 2.40
6. 2.56

====

Experiment: Detection of encapsulation efficiency, drug loading concentration and total RNA concentration (RiboGreen)
Format: physicochemical
Settings: ratio vs ALC-0315
Source text: Encapsulation efficiency is a key quality attribute of liposomes, which refers to the percentage of drug content encapsulated in the lipid bimolecular layer accounting for the total drug dose and can reflect the degree of drug encapsulation in liposomes. The Chinese Pharmacopoeia stipulates that the encapsulation efficiency should generally not be less than 80%. The drug loading amount is the ratio of the amount of drug in the liposome to the total amount of drug and carrier in the liposome. […]
Provide the reported drug loading concentration, times that of ALC-0315 of each item.
Give bare numbers.

Consider the worked cases shown below.
{"columns": ["Molecule", "Experimental Result"],
 "data": [
  ["CCCCCCCCCCCOC(=O)CCCN(CCO)CCN(CCO)CCCCCC(=O)OC(CCCCCCCC)CCCCCCCC [YK-407]", 1.33],
  ["CCCCCCCCC(CCCCCCCC)OC(=O)CCCCCN(CCO)CCN(CCO)CCCCCC(=O)OC(CCCCCCCC)CCCCCCCC [YK-401]", 1.38],
  ["CCCCCCCCC(CCCCCCCC)COC(=O)CCCCCN(CCCO)CCCN(CCCO)CCCCCC(=O)OCC(CCCCCCCC)CCCCCCCC [YK-423]", 1.39],
  ["CCCCCCCCC(CCCCCCCC)COC(=O)CCCCCN(CCCO)CCN(CCCO)CCCCCC(=O)OCC(CCCCCCCC)CCCCCCCC [YK-422]", 1.68],
  ["CCCCCCCCC(CCCCCCCC)OC(=O)CCCCCCCN(CCO)CCN(CCO)CCCCCCCC(=O)OC(CCCCCCCC)CCCCCCCC [YK-403]", 1.27]
]}

Proceeding to the next molecule to report its drug loading concentration, times that of ALC-0315.
# drug loading concentration, times that of ALC-0315 (molecule: CCCCCCCCC(CCCCCCCC)C(=O)OCCCCCCN(CCO)CCN(CCO)CCCCCCOC(=O)C(CCCCCCCC)CCCCCCCC [YK-402] ) is 1.40

====

Hi there, I'd appreciate the recorded Total RNA concentration for every entry that follows.
Assay: Detection of encapsulation efficiency, drug loading concentration and total RNA concentration (RiboGreen)
Assay type: physicochemical
Conditions: LNP formulation prepared from the cationic lipid
Numbers only, in µg/mL.

The examples below pair each entry with its known result.
{"columns": ["Compound", "Assay Endpoint", "Measurement Units", "Experimental Result"],
 "data": [
  ["CCCCCCCCC(CCCCCC)C(=O)OCCCCCCN(CCCCO)CCCCCCOC(=O)C(CCCCCC)CCCCCCCC (centres unmarked) [ALC-0315, reference compound]", "Total RNA concentration", "µg/mL", 37.86],
  ["CCCCCCCCCCOC(=O)CCCCCN(CCO)CCN(CCO)CCCCCC(=O)OCCC(CCCCCC)CCCCCC", "Total RNA concentration", "µg/mL", 42.57]
]}

Give measured Total RNA concentration for every item shown.
1. CCCCCCCCCCOC(=O)CCCCCN(CCO)CCCN(CCO)CCCCCC(=O)OCCC(CCCCCC)CCCCCC
2. CCCCCCCCCCOC(=O)CCCN(CCO)CCN(CCO)CCCCCC(=O)OC(CCCCCCCC)CCCCCCCC
3. CCCCCCCCCCOC(=O)CCCN(CCO)CCN(CCO)CCCC(=O)OC(CCCCCCCC)CCCCCCCC

1. 33.46
2. 40.19
3. 52.46

Here are 8 compounds. What values of Total RNA concentration were reported for them?
1. CCCCCCCCCCCOC(=O)CCCN(CCO)CCN(CCO)CCCCCCOC(=O)CC(CCCCCC)CCCCCC
2. CCCCCCCCC(CCCCCCCC)C(=O)OCCCCCCN(CCO)CCN(CCO)CCCCCCOC(=O)C(CCCCCCCC)CCCCCCCC
3. CCCCCCCCC(CCCCCCCC)OC(=O)CCCCCN(CCO)CCCN(CCO)CCCCCC(=O)OC(CCCCCCCC)CCCCCCCC
4. CCCCCCCCC(CCCCCCCC)COC(=O)CCCCCN(CCCO)CCCN(CCCO)CCCCCC(=O)OCC(CCCCCCCC)CCCCCCCC
5. CCCCCCCCCCCOC(=O)CCCN(CCO)CCN(CCO)CCCCCC(=O)OCC(CCCCCCCC)CCCCCCCC
6. CCCCCCCCC(CCCCCCCC)COC(=O)CCCCCN(CCCO)CCCCN(CCCO)CCCCCC(=O)OCC(CCCCCCCC)CCCCCCCC
7. CCCCCCCCCCOC(=O)CCCN(CCO)CCCCCC(=O)OCC(CCCCCCCC)CCCCCCCC [YK-009, reference compound]
8. CCCCCCCCCCOC(=O)CCCN(CCO)CCCCN(CCO)CCCCCC(=O)OC(CCCCCCCC)CCCCCCCC

1: 34.41; 2: 40.09; 3: 34.44; 4: 41.00; 5: 39.27; 6: 35.39; 7: 38.50; 8: 40.83
